- Test system: Lolium perenne (LOLPE)
- Assay procedure: Glasshouse assay for herbicidal activity (pre- and post-emergence), percentage phytotoxicity
- Format: in vivo
- Condition description: Lolium perenne, pre-emergence, 480 h, PRE-emergence, rate 250 g/ha, visual score 20 DAA (100%=total damage, 0%=no damage); read-out: Pre-emergence herbicidal activity (percentage phytotoxicity) LOLPE PRE
Property name: pest or weed control at 250 g/ha (%)
Numbers only here, please. The scale is %.

Worked cases, answers included:
- Molecule: "Cc1cc(-n2cc(Cl)cn2)cc(C)c1C1C(=O)CC(CC(=O)NCc2cccc(F)c2)C1=O (stereo not drawn) [Compound B223]"
  Result number: 80
- Molecule: "C/C=C/c1cc(C)c(C2C(=O)CC(CC(=O)N3CCOCC3)C2=O)c(C)c1 (stereo not drawn) [Compound B172]"
  Result number: 100
- Molecule: "Cc1cc(-n2cc(Cl)cn2)cc(C)c1C1C(=O)CC(CC(=O)NCc2ccc(C#N)cc2)C1=O (stereo not drawn) [Compound B225]"
  Result number: 0
- Molecule: "CCNC(=O)CC1CC(=O)C(c2c(C)cc(-c3ccc(Br)cn3)cc2C)C1=O (stereo not drawn) [Compound B323]"
  Result number: 100
- Molecule: "Cc1cc(-c2ncc(F)cn2)cc(C)c1C1C(=O)CC(CC(=O)NC2CC2(F)F)C1=O (stereo not drawn) [Compound B292]"
  Result number: 70

Return pest or weed control at 250 g/ha for the following molecule: CCc1cc(-n2cc(Cl)cn2)cc(C)c1C1C(=O)CC(CC(=O)N(C)C(C)(C)C)C1=O (stereo not drawn) [Compound B239]
100

----------
- Tested on: Avena fatua (AVEFA)
- Assay procedure: Glasshouse assay for herbicidal activity (pre- and post-emergence), percentage phytotoxicity
- Type: in vivo
- Condition description: Avena fatua, pre-emergence, 480 h, Rate 250 g/ha; pre-emergence; assessed visually 20 DAA; 100%=total damage, 0%=no damage; read-out: Pre-emergence herbicidal activity (percentage phytotoxicity) AVEFA PRE
// values below are reported pest or weed control at 250 g/ha
Numbers only here, please. The scale is %.

- Molecule: "C#CC(C)(C)NC(=O)CC1CC(=O)C(c2c(C)cc(C)cc2C)C1=O (stereo not drawn) [Compound A11]"
  Unit name: "%"
  pest or weed control at 250 g/ha: 50
- Molecule: "COCC(C)NC(=O)CC1CC(=O)C(c2c(C)cc(C)cc2C)C1=O (stereo not drawn) [Compound A16]"
  Unit name: "%"
  pest or weed control at 250 g/ha: 90
- Molecule: "COCC#CC(C)(C)NC(=O)CC1CC(=O)C(c2c(C)cc(-c3ncc(Cl)cc3F)cc2C)C1=O (stereo not drawn) [Compound A112]"
  Unit name: "%"
  pest or weed control at 250 g/ha: 90
- Molecule: "Cc1cc(-c2ccc(C#N)cn2)cc(C)c1C1C(=O)CC(CC(=O)NCc2cccs2)C1=O (stereo not drawn) [Compound A156]"
  Unit name: "%"
  pest or weed control at 250 g/ha: 70
- Molecule: "CC#Cc1cc(C)c(C2C(=O)CC(CC(=O)NC(C)(C)C)C2=O)c(CC)c1 (stereo not drawn) [Compound A48]"
  Unit name: "%"
  pest or weed control at 250 g/ha: 90
- Molecule: "Cc1cc(-c2ncc(Cl)cc2F)cc(C)c1C1C(=O)CC(CC(=O)NCc2ccc(Cl)nc2)C1=O (stereo not drawn) [Compound A116]"
  Unit name: "%"
  pest or weed control at 250 g/ha: 90
- Molecule: "CC#Cc1cc(C)c(C2C(=O)CC(CC(=O)NCC(=O)C(C)(C)C)C2=O)c(C)c1 (stereo not drawn) [Compound A59]"
  Unit name: "%"
  pest or weed control at 250 g/ha: 70
- Molecule: "CC#Cc1cc(C)c(C2C(=O)CC(CC(=O)NC(C)C)C2=O)c(C)c1 (stereo not drawn) [Compound A8]"
  Unit name: "%"
  pest or weed control at 250 g/ha: 100
- Molecule: "Cc1cc(C)c(C2C(=O)CC(CC(=O)NCc3cccs3)C2=O)c(C)c1 (stereo not drawn) [Compound A6]"
  Unit name: "%"
  pest or weed control at 250 g/ha: 60
- Molecule: "CCC(C)(C)NC(=O)CC1CC(=O)C(c2c(C)cc(C)cc2C)C1=O (stereo not drawn) [Compound A27]"
  Unit name: "%"
  pest or weed control at 250 g/ha: 70

Provide measured pest or weed control at 250 g/ha on Avena fatua (AVEFA) for CC#Cc1cc(C)c(C2C(=O)CC(CC(=O)NCCCC)C2=O)c(C)c1 (stereo not drawn) [Compound A29] please.
90

Provide measured pest or weed control at 250 g/ha on Avena fatua (AVEFA) for Cc1cc(-c2ccc(C(F)(F)F)cn2)cc(C)c1C1C(=O)CC(CC(=O)NCc2cccc(C(F)(F)F)c2)C1=O (stereo not drawn) [Compound A153] please.
70

----------
- Test system: Avena fatua (AVEFA)
- Assay procedure: Glasshouse assay for herbicidal activity (pre- and post-emergence), percentage phytotoxicity
- Assay type: in vivo
- Condition description: Avena fatua, pre-emergence, 480 h, Rate 250 g/ha; pre-emergence; assessed visually 20 DAA; 100%=total damage, 0%=no damage; read-out: Pre-emergence herbicidal activity (percentage phytotoxicity) AVEFA PRE
Property name: pest or weed control at 250 g/ha (%)
Numbers only here, please. The scale is %.

Worked cases, answers included:
- Molecule: "Cc1cc(-c2ncc(Cl)cc2F)cc(C)c1C1C(=O)CC(CC(=O)NCc2ncccc2Cl)C1=O (stereo not drawn)"
  Unit name: "%"
  pest or weed control at 250 g/ha: 90
- Molecule: "C=CCCNC(=O)CC1CC(=O)C(c2c(C)cc(-n3cc(Cl)cn3)cc2C)C1=O (stereo not drawn)"
  Unit name: "%"
  pest or weed control at 250 g/ha: 90

Kindly consider the entry below.
Provide measured pest or weed control at 250 g/ha on Avena fatua (AVEFA) for Cc1cc(C)c(C2C(=O)CC(CC(=O)N3CCOCC3)C2=O)c(C)c1 (stereo not drawn) please.
90

----------
// values below are reported pest or weed control at 250 g/ha
- Tested on: Lolium perenne (LOLPE)
- Assay procedure: Glasshouse assay for herbicidal activity (pre- and post-emergence), percentage phytotoxicity
- Assay type: in vivo
- Condition description: Lolium perenne, post-emergence, 360 h, 250 g/ha; post-emergence; 15 DAA; visual assessment (100%=total damage, 0%=no damage); read-out: Post-emergence herbicidal activity (percentage phytotoxicity) LOLPE POST
Numbers only here, please. The scale is %.

- Compound: "C#CC(C)(C)NC(=O)CC1CC(=O)C(c2c(C)cc(-c3ncc(Cl)cc3F)cc2C)C1=O (stereo not drawn) [Compound B126]"
  Unit name: "%"
  pest or weed control at 250 g/ha: 100
- Compound: "Cc1cc(C)c(C2C(=O)CC(CC(=O)NCc3cccc(F)c3)C2=O)c(C)c1 (stereo not drawn) [Compound B21]"
  Unit name: "%"
  pest or weed control at 250 g/ha: 90
- Compound: "Cc1cc(C)c(C2C(=O)CC(CC(=O)Nc3ccc(C#N)cc3)C2=O)c(C)c1 (stereo not drawn) [Compound B1]"
  Unit name: "%"
  pest or weed control at 250 g/ha: 20
- Compound: "Cc1cc(C)c(C2C(=O)CC(CC(=O)NC(C)(C)C3CC3)C2=O)c(C)c1 (stereo not drawn) [Compound B65]"
  Unit name: "%"
  pest or weed control at 250 g/ha: 70
- Compound: "Cc1cc(-c2cc(C#N)c(F)cn2)cc(C)c1C1C(=O)CC(CC(=O)NC(C)(C)C)C1=O (stereo not drawn) [Compound B99]"
  Unit name: "%"
  pest or weed control at 250 g/ha: 80
- Compound: "Cc1cc(Br)cc(C)c1C1C(=O)CC(CC(=O)NCC2CC2(Cl)Cl)C1=O (stereo not drawn) [Compound B141]"
  Unit name: "%"
  pest or weed control at 250 g/ha: 80
- Compound: "Cc1cc(C)c(C2C(=O)CC(CC(=O)NCc3ccccc3Cl)C2=O)c(C)c1 (stereo not drawn) [Compound B17]"
  Unit name: "%"
  pest or weed control at 250 g/ha: 70
- Compound: "Cc1cc(C)c(C2C(=O)CC(CC(=O)NC3=NOC(C)(C)C3)C2=O)c(C)c1 (stereo not drawn) [Compound B42]"
  Unit name: "%"
  pest or weed control at 250 g/ha: 40
- Compound: "CCCNC(=O)CC1CC(=O)C(c2c(C)cc(Br)cc2C)C1=O (stereo not drawn) [Compound B145]"
  Unit name: "%"
  pest or weed control at 250 g/ha: 90
- Compound: "C=C(Cl)CNC(=O)CC1CC(=O)C(c2c(C)cc(C)cc2C)C1=O (stereo not drawn) [Compound B133]"
  Unit name: "%"
  pest or weed control at 250 g/ha: 90

Return pest or weed control at 250 g/ha for the following compound: Cc1cc(-c2ncc(F)cc2F)cc(C)c1C1C(=O)CC(CC(=O)NCc2ccc(Br)cc2)C1=O (stereo not drawn) [Compound B100]
100

Return pest or weed control at 250 g/ha for the following compound: Cc1cc(-c2ncc(F)cn2)cc(C)c1C1C(=O)CC(CC(=O)NC(C)(C)C)C1=O (stereo not drawn) [Compound B5]
90

Return pest or weed control at 250 g/ha for the following compound: Cc1cc(C)c(C2C(=O)CC(CC(=O)NC/C=C/Cl)C2=O)c(C)c1 (stereo not drawn) [Compound B46]
90

Return pest or weed control at 250 g/ha for the following compound: C=CCC(C)(C)NC(=O)CC1CC(=O)C(c2c(C)cc(C)cc2C)C1=O (stereo not drawn) [Compound B27]
70

Taken from patent US10206394B2.
